Target: L-lactate dehydrogenase (Plasmodium falciparum (isolate CDC / Honduras))
Experiment: PfLDH activity inhibition – cell lysate, 3D7 strain, counter-screen for P. falciparum growth inhibition project (AID 2304);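 note: 0% = vehicle and 100% = reference inhibitor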
Conditions: P. falciparum 3D7 crude extract, LDH APAD/NBT absorbance; at 2 µM; hits give high values
Calls of active or inactive are those of the source. The rule behind the calls is not given here.
Catalogue of compounds with associated inhibition

Task: inhibition lookup needed for `COc1ccc(C(=O)Cn2nc(-c3ccc(Cl)cc3)ccc2=O)c(OC)c1` , thanks.
Result: 4% (inactive)

Task: inhibition lookup needed for `Cc1ccc(CON2C(N)=NC(N)=NC23CCCCC3)c2ccccc12` , thanks.
Result: -8% (inactive)

Task: inhibition lookup needed for `COCCNCc1ncsc1-c1ccc2c(Nc3cc(O)ccc3C)ccnc2c1` , thanks.
Result: 6% (inactive)

Task: inhibition lookup needed for `CN(C)CCNCc1ccc(-c2ccc3c(Nc4ccc(F)cc4Cl)ccnc3c2)o1` , thanks.
Result: -9% (inactive)

Task: inhibition lookup needed for `CCOc1ccccc1CNc1nccc(NCc2ccc(Cl)cc2Cl)n1` , thanks.
Result: -3% (inactive)

Task: inhibition lookup needed for `CCOc1ccc(N2C(N)=NC(N)=NC2(C)C)cc1` , thanks.
Result: 0% (inactive)

----------
Assay: antimalarial activity against Dd2 strain (AID 2302);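 note: 0% = DMSO untreated growth and 100% = chloroquine plus artemisinin killed control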
Details: P. falciparum Dd2 in RBCs, LDH growth readout, 72 h; at 2 µM; hits give high values
Catalogue of compounds with associated growth inhibition
Write the value in % as a bare number.

Task: growth inhibition lookup needed for O=C1Nc2cccc3c2C1(CCCCN1CCC(c2c[nH]c4cc(C(F)(F)F)ccc24)CC1)CCC3 (stereo not drawn) , thanks.
Result: 79

----------
Experiment: human hepatoma cell viability loss – ATP luminescence, cytotoxicity control for P. falciparum antimalarial project, primary screen (AID 2303);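 note: 0% = DMSO wells and 100% = digitonin-killed cells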
Details: HepG2 viability, 24-48 h, at 10 µM, hits give high values
Calls of active or inactive are those of the source.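 How the source made its calls: active means inhibition above 50%; inactive means the rest.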
readout kind: inhibition

Solved entries (count: 4):
[[record]]
entry_smiles = "CCc1sc(N2CCN(C)CC2)nc1C(=O)Nc1ccc(F)cc1C(F)(F)F"
readout_kind = "inhibition"
result = "-1% (inactive)"

[[record]]
entry_smiles = "O=S(=O)(c1cc(Cl)c(Cl)cc1Cl)N1CCCCC(c2ccc(C(F)(F)F)cc2)=N1"
readout_kind = "inhibition"
result = "9% (inactive)"

[[record]]
entry_smiles = "FC(F)(F)c1ccc2nc(-c3ccc(-c4cccc(CN5CCC(CCN6CCCCC6)CC5)c4)cc3)[nH]c2c1"
readout_kind = "inhibition"
result = "100% (active)"

[[record]]
entry_smiles = "CC(C)c1ccc(CN(C)CCCCNC(=O)c2ccc(NC(=O)c3ccc(Cl)cc3)cc2)cc1"
readout_kind = "inhibition"
result = "17% (inactive)"


# evaluate next
Task: inhibition lookup needed for `CC(C)CNCc1cccc(-c2cccc(CN(CCCN3CCN(C)CC3)C(=O)CCC3CCCC3)c2)c1` , thanks.
Result: 45% (inactive)

----------
Assay: human hepatoma cell viability loss – ATP luminescence, cytotoxicity control for P. falciparum antimalarial project, primary screen (AID 2303);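 note: 0% = DMSO wells and 100% = digitonin-killed cells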
Conditions: HepG2 viability, 24-48 h, at 10 µM
The source made the active and inactive calls.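 Rule for the calls: active = inhibition above 50%; inactive = the rest.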
// allowed return values: YES for active, NO for inactive

Worked examples, 5 compounds total:
[[record]]
entry_smiles = "FC(F)(F)c1cc(CNCCCNc2nc3ccncc3[nH]2)ccc1Cl"
class = "NO"

[[record]]
entry_smiles = "COc1ccc2nc(-c3ccccc3)cc(NN=Cc3ccc([N+](=O)[O-])o3)c2c1"
class = "YES"

[[record]]
entry_smiles = "Cc1c(N=O)cc(C(C)(C)C)c(O)c1C(=O)Nc1ccc([N+](=O)[O-])cc1Cl"
class = "YES"

[[record]]
entry_smiles = "O=C(/C=C/c1ccc(Cl)c(Cl)c1)N1CCC(CN2CCC(Cc3c[nH]c4ccccc34)CC2)CC1"
class = "NO"

[[record]]
entry_smiles = "C[C@@H](CC1CCCCC1)NCc1cccc(NS(=O)(=O)c2ccc(O)c(-c3ccno3)c2)c1"
class = "NO"


Task: Outcome logged for `COc1ccccc1CCNc1nc(C)cc(N[C@@H](Cc2ccccc2)C(=O)NCc2cccs2)n1` in this assay:
Result: NO

Task: Outcome logged for `CCn1ncc2c(N3CCCC3=O)cc(C(=O)N[C@@H](Cc3ccccc3)[C@H](O)CNC(C)(C)c3cccc(C(F)(F)F)c3)cc21` in this assay:
Result: NO

Task: Outcome logged for `COc1cc(C(=O)Nc2nc3ccccc3[nH]2)ccc1OCC(=O)Nc1cccc(C(F)(F)F)c1` in this assay:
Result: NO

Task: Outcome logged for `Cc1cc(N[C@@H](Cc2ccccc2)C(=O)Nc2ccccc2)nc(NCCc2ccccc2)n1` in this assay:
Result: NO

----------
Experiment: antimalarial activity against Dd2 strain (AID 2302);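 note: 0% = DMSO untreated growth and 100% = chloroquine plus artemisinin killed control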
Conditions: P. falciparum Dd2 in RBCs, LDH growth readout, 72 h; at 2 µM; hits give high values
readout kind: growth inhibition (%)
Write the value in % as a bare number.

Solved entries (count: 5):
[[record]]
entry_smiles = "O=S(=O)(NCCN1CCCC1)c1cccc(-c2ccc(CNCc3ccc(F)cc3)cc2)c1"
numeric_value = 41

[[record]]
entry_smiles = "CCOC(=O)c1ccc(NC(=O)Nc2ccc(-c3cccc(-c4nc5ccccc5[nH]4)c3)cc2)cc1"
numeric_value = 99

[[record]]
entry_smiles = "Cc1ccc(-c2nnc(-c3ccc(C(=O)NC4CCN(Cc5ccc(C#N)cc5)CC4)cc3)o2)cc1Br"
numeric_value = 7

[[record]]
entry_smiles = "COc1ccc(CNc2nc(NCCc3ccccc3)c3cc(OC)c(OC)cc3n2)cc1OC"
numeric_value = 101

[[record]]
entry_smiles = "Oc1cccc(CNCCCN(Cc2ccccc2)c2ccccc2)c1"
numeric_value = 97


Task: growth inhibition lookup needed for `CCCc1cc(Cc2cnc(N)nc2N)cc(CC)c1O` , thanks.
Result: -3

Task: growth inhibition lookup needed for `CCCOC(=O)c1ccc(OCCCON2C(N)=NC(N)=NC2(C)C)cc1` , thanks.
Result: 97

----------
Catalogue of compounds with associated growth inhibition
Assay: antimalarial activity against Dd2 strain (AID 2302);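 note: 0% = DMSO untreated growth and 100% = chloroquine plus artemisinin killed control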
Conditions: P. falciparum Dd2 in RBCs, LDH growth readout, 72 h; at 2 µM; hits give high values
Write the value in % as a bare number.

Solved entries (count: 5):
[[record]]
compound = "Cc1c(CC(=O)N(C)C2CCN(CCCCCNC(=O)/C=C/c3ccc(Cl)c(Cl)c3)CC2)sc2ccc(Cl)cc12"
readout_kind = "growth inhibition"
numeric_value = 9

[[record]]
compound = "O=C(Nc1ccc(N2CCN(C(=O)C=Cc3ccccc3)CC2)c(Cl)c1)c1ccc([N+](=O)[O-])o1"
readout_kind = "growth inhibition"
numeric_value = 90

[[record]]
compound = "CCN(CC)CCN(Cc1ccc(-c2ccc(C(F)(F)F)cc2)cc1)C(=O)Cn1c(CCc2cccc(F)c2F)nc(=O)c2cc(F)c(F)cc21"
readout_kind = "growth inhibition"
numeric_value = 56

[[record]]
compound = "CO/C(=C\\C=C\\c1cc2cc(Cl)c(Cl)cc2[nH]1)C(=O)NCCCN1CCC(c2ccccc2)CC1"
readout_kind = "growth inhibition"
numeric_value = 92

[[record]]
compound = "COCc1cc(C)nc2sc(C(=O)Nc3cc(C(C)(C)C)ccc3O)c(N)c12"
readout_kind = "growth inhibition"
numeric_value = 57


Task: growth inhibition lookup needed for CC1(C)N=C(N)N=C(N)C1c1ccc(Cl)c(Cl)c1 (centres undefined) , thanks.
Result: 0

Task: growth inhibition lookup needed for `Cc1nc(-c2ccc(-c3ccc(C(=O)Nc4ccc(Cl)c(N5CCN(C)CC5)c4)cc3)c(C)c2)no1` , thanks.
Result: 47

Task: growth inhibition lookup needed for `Oc1ccc(CCNc2nc(NCCCOc3cc(CN4CCCCC4)ccc3F)nc(N3CCNCC3)n2)cc1` , thanks.
Result: -3

Task: growth inhibition lookup needed for `Nc1ccnc(N2CCC(CCOc3ccnc4cc(Cl)ccc34)CC2)c1` , thanks.
Result: 99

----------
Assay: inhibition of 3D7 malaria parasite growth – strain 3D7 (AID 2306);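 note: 0% = DMSO wells and 100% = chloroquine plus artemisinin control wells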
Conditions: P. falciparum 3D7 erythrocytic growth, LDH absorbance, 72 h; at 2 µM; hits give high values
The source made the active and inactive calls. How the calls were made is not given here.
Catalogue of compounds with associated growth inhibition

Task: growth inhibition lookup needed for `CS(=O)(=O)c1ccc(CNCc2cccc(-c3ccc(-c4nc5ccc(C(F)(F)F)cc5[nH]4)cc3)c2)cc1` , thanks.
Result: 101% (active)

Task: growth inhibition lookup needed for CCc1ccc(N2C(=O)C3C(Cc4ccc(OC(C)(C)C)cc4)NC4(C(=O)N(Cc5ccccc5)c5ccc(F)cc54)C3C2=O)cc1 (stereo not drawn) , thanks.
Result: 96% (active)

Task: growth inhibition lookup needed for `O=C(Nc1ccc(F)c(C(F)(F)F)c1)N[C@H]1CCN(CCCCCNC(=O)[C@@H]2C[C@H]2c2ccc(Cl)c(Cl)c2)C1` , thanks.
Result: 90% (active)

Task: growth inhibition lookup needed for `COc1cccc(NC(=O)Nc2c(-c3cccc(C(F)(F)F)c3)c(C(F)(F)F)nn2C)c1` , thanks.
Result: 93% (active)
